tested on: Mus musculus; assay: Concentration producing seizure after 0.5 hrs tested by ScMet (Subcutaneous pentylenetetrazole test) done after 30 min of administration of 85 mg/kg pentylenetetrazol in mouse
// values below are reported Dose
Test Readout: Dose (mg/kg)

INSERT INTO measurements (substance_smiles, quantitative_result) VALUES
  ('Fc1ccccc1COc1ccc2c(c1)CCc1nncn1-2', 300),
  ('Clc1ccc(COc2ccc3c(c2)CCc2nncn2-3)cc1', 300),
  ('CCCCOc1ccc2c(c1)CCc1nncn1-2', 100),
  ('Fc1ccc(COc2ccc3c(c2)CCc2nncn2-3)cc1', 30),
  ('Brc1cccc(COc2ccc3c(c2)CCc2nncn2-3)c1', 30),
  ('Cc1ccc(COc2ccc3c(c2)CCc2nncn2-3)cc1', 30),
  ('c1ccc(COc2ccc3c(c2)CCc2nncn2-3)cc1', 100),
  ('c1cc2c(cc1COc1ccc3c(c1)CCc1nncn1-3)OCO2', 100),
  ('COc1ccc(COc2ccc3c(c2)CCc2nncn2-3)cc1', 100),
  ('CCCCCCOc1ccc2c(c1)CCc1nncn1-2', 30),
  ('CCCOc1ccc2c(c1)CCc1nncn1-2', 100);
